test system: MS2 coat protein; test: apparent KD of MS2 coat protein; designed switch direction (-1 OFF switch, 1 ON switch): 1; higher = weaker reporter binding; conditions: Eterna round: R95; input ligand: none
endpoint-label: apparent KD of MS2 coat protein (µM)

>>> observed_value("UACAAUCUAUCUGAGGAUAUCAUGUAUUAAACAUGAGGAUCACCCAUGUGCAGGAAAACUGCAUAUGAGAAGGCAGAUAGAUUGU [salish99_ss2_r3_064] (puzzle: Same State 2)")
0.168
>>> observed_value("UUUAGUUGCGCGCAGGAUAUGUAUUAAUAUACAUGAGGAUCACCCAUGUGAGAUCGAAUAGAUCUGCAGAAGGGCGAAUCGCGAC [Laonerce - 27] (puzzle: Same State 2)")
0.772
>>> observed_value("AUUUAACAAGCUUUUUGCUCGUCUUAUAAACAUGAGGAUCACCCAUGUAAUAGCGUGAGAGUAAUUUAAUAAAUAAU [JMF 84] (puzzle: Sensor for hsa-mir-208a)")
0.0134
>>> observed_value("UUGCAGUCAGGUGAGGAUAUCAUGAGUUUAACAUGAGGAUCACCCAUGUGCUGCCUUGCAGCAUAUGAGAAGGCACCUGGCUGCU [JL-ss2-3.03 Brourd Mod] (puzzle: Same State 2)")
0.535
>>> observed_value("GGCUAUCGCGUACGAUAGCUUAAGCGUGUACAUGAGGAUCACCCAUGUCAUGUACAAGCUUUUUGCUCGUCUUAUUG [JL-shm-2.34 JL mod] (puzzle: Sensor for hsa-mir-208a)")
0.493
>>> observed_value("CGUCCAGCCUGAGCUGGACAAAAGCAUGUACAUGAGGAUCACCCAUGUUCAUGUACAAGCUUUUUGCUCGUCUUAGU [salish99_208a_r3_073] (puzzle: Sensor for hsa-mir-208a)")
0.646
>>> observed_value("AACAAUCUAUCUGAGGAUAUCAUGAAAAAAACAUGAGGAUCACCCAUGUGCAGGAAAACUGCAUAUGAGAAGGCAGAUAGAUUGC [salish99_SS2_r3_004] (puzzle: Same State 2)")
1.69
>>> observed_value("UACCAACAUAUAGAACAAGCGUGCUCGUCACAUGAGGAUCACCCAUGUCUAAGCGCUGAACCUGCAUCCUCAGCGCC [Oniste] (puzzle: Sensor for hsa-mir-208a)")
0.0859
>>> observed_value("UCAAGCGAAAGGCUCGUCUUAUGCAAGAAACAUGAGGAUCACCCAUGUGAGGGACGAUUGAGUUAGAUGGAAUGGAA [JR_SHM208A_Sub031] (puzzle: Sensor for hsa-mir-208a)")
0.025
>>> observed_value("UGUCCAGCCUGAGCUGGACAAAAGCAUGUACAUGAGGAUCACCCAUGUUCAUGUACAAGCUUUUUGCUCGUCUUAGG [salish99_208a_r3_066] (puzzle: Sensor for hsa-mir-208a)")
0.506
